# Tested on: NCI-H2087
# ASSAY: relative viability (nuclei count vs DMSO), 5 days (fraction); higher = more cells survive
# CONDITION NOTES: first compound 0.253 µM
ASSAY METRIC: relative viability
Numbers only.

Known relative viability results, listed for orientation:
C=C1C(=O)O[C@@H](CCCCCCCC)[C@@H]1C(=O)O [C-75] + CC(=O)Nc1cccc(-n2c(=O)n(C3CC3)c(=O)c3c(Nc4ccc(I)cc4F)n(C)c(=O)c(C)c32)c1 [Trametinib] (partner 0.02 µM) :: 0.24
Oc1nc(-c2ccc(C(F)(F)F)cc2)nc2c1CSCC2 [XAV939] + CC(=O)c1c(C)c2cnc(Nc3ccc(N4CCNCC4)cn3)nc2n(C2CCCC2)c1=O [Palbociclib] (partner 0.5 µM) :: 0.182

As a next step, examine the compound that follows.
Form: compound = C=C1C(=O)O[C@@H](CCCCCCCC)[C@@H]1C(=O)O [C-75] + CCNC(=O)c1noc(-c2cc(C(C)C)c(O)cc2O)c1-c1ccc(CN2CCOCC2)cc1 [Luminespib] (partner 0.01 µM) ; relative viability = 0.218
